Target: menin-MLL interaction (Homo sapiens (Human), UniProt O00255)
Sequence (O00255 whole entry): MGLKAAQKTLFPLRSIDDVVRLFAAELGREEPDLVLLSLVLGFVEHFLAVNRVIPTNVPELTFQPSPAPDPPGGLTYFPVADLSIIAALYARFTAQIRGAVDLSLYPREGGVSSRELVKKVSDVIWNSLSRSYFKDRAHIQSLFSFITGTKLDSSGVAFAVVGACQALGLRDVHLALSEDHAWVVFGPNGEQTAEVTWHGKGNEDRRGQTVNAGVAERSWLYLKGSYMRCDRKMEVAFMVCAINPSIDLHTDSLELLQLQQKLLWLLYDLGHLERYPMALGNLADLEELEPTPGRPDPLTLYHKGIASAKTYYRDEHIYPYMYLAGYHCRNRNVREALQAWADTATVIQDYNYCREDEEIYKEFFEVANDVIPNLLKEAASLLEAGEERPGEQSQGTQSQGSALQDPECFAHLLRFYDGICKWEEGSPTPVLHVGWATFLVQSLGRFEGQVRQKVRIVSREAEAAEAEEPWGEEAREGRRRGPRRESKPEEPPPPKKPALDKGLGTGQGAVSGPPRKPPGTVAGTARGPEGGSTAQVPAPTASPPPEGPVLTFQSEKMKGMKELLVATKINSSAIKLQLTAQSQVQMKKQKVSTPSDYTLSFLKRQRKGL
Test: Fluorescence polarization (FP) competition assay with fluorescein-labeled MLL peptide;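 further: Read-out is fluorescence anisotropy of fluorescein-labeled MLL peptide bound to menin, inhibitors displace the peptide and lower anisotropy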
Assay type: binding
Conditions: Table 4; NA = no activity, NS not defined in this table; read-out: IC50 in FP assay with FLSN-MLL
pIC50: −log10 of the molar value.
readoutKind: pIC50

a: Nc1cccc(-c2cccnc2)c1
b: Cc1cc(C)c(-c2csc(CC(N)=O)n2)cc1C
c: NC(=O)Cc1nc(-c2cccc(Cl)c2)cs1
d: Cc1nn(-c2ccccc2)nc1C(N)=O
## Input Ranking criterion: pIC50, increasing numeric value. Items: as listed above. Your answer should be the labels, listed in the requested order.
## Output b, d, c, a
